experiment: yeast display, Sf9 membrane polyspecificity reagent, FACS + sequencing; frameworks hold sequencing errors
Measured Quantity: polyreactivity (PSR sort gate)

Record Sequence	Result
QVQMQESGGGLEQAGGSLRLSCAASGNISGFGYMGWYRQAPGKEREFVAAISYGTSTYYADSVKGLFTISRDNAKNTVYLQINSLKPEDTAVFYCAALCLISKHHHYWGEGTQVTVSS	high polyreactivity
QVQLVESGGGLVQAGGSLRLSCAASGRIFKFNAMGWYRQAPGKERELVAATWSGGRTSYADSVKGRFTISRDNAKNTVYLQMNSLKPEDTAVYYCNAADWIDVQYDYWGQGNQVTVSS	low polyreactivity
QVQLVESGGGLVQAGGSLRLSCPASGRTFQVYAMGWYRQAPGKERELVAGITRAGSTYYADSVKGRFTISRDNAKNTVYLQMISLKPEDTAVYYCAAGWKSSYYIWRYGSWGQGTQVTVSS	high polyreactivity
QVQLVESGGGLVQAGGSLRISCAASGRTFARYVMGWYRQAPGKERELVAAISGGGGSTYYADSVKGRLTISRDTAKNTVFLQMNSLKPAETAVYYCAAVPEGPNTGDDANGLDYWGQGTQVTVSS	low polyreactivity

Lab note: measured polyreactivity (PSR sort gate) of QVHLVESGGGLVQAGGSLRLSCAASGSTFISYAMGWYRQAPGKERELVAAISRNGGRTYYADSVKGRFTISRDNAKNTVYLQMNSLKPEDTAVYYCAAAYNSYRFDYWGQGTQVTVSS was high polyreactivity

----------
assay: yeast display, Sf9 membrane polyspecificity reagent, FACS + sequencing; frameworks hold sequencing errors
Measured Quantity: polyreactivity (PSR sort gate)

Below, each entry is followed by its recorded polyreactivity (PSR sort gate) result.
Record Sequence	Result
QVQLEESGGGLVQAGGSLRLSCAASGGIFIFYAMGWYRQAPGKERELVAAISNVSSTNYADSVKGRFTISRDNAKNSVYLQMNSLKPEDTAVYYCNAVGVPSEYYSWGHGTQVTVSS	low polyreactivity
QVQLVESGGGLVQAGGSLRLSCAASGSILYYNAMGWYRQAPGKERELVAAISQRGASTYYADSVKGRFTISRDNAKNTVYLQMNSLKPEDTAVYYCAARTRLTADPRYGISSKMYYWGQGTQVTVSS	high polyreactivity
QVQLVESGGGLVQAGGSLRLSCAASGSTFWVNVMGWYRQAPGKERELVAAITTGSSPYYADSVKGRFTISRDNAKNTVYLQMNSLKPEDTAVYYCNVFQGTRYGYWGQGTQVTVSS	low polyreactivity
QVQLVESGGGLVQAGGSLRLSCGASGFTFQNYAMGWYRQARGKERELVAAIDSRGGRTYYADSVKGRFTISRDNAKNTVYLQMNSLKPEDTSVYYCAVAENKRCGAVGYYYWGQGTQVTVSS	low polyreactivity

For this sequence ( QVQLVDSGGGLVQAGGSLRLSCAASGLIFGYYDMGWYRQAPGKERELVAAITTGDSTYYADSVKGRFTISRDNAKNTVYLQMTCLKPEDSAVYYCSAYAFWYYESDYWGKGTQVTVSS ), measured polyreactivity (PSR sort gate) is low polyreactivity

So for QVQLVESGGGLVQAGGSLRLSCAASGSIFKFYTMGWYIQAPGKERELVATITSGGRTNYADSVKGRFTISPDNAKNTVYLQMNTLKPEDTAVYYCAATWLRVKYRFKGYDYWGQGTQVTVSS , the logged polyreactivity (PSR sort gate) turned out to be high polyreactivity

----------
experiment: yeast display, Sf9 membrane polyspecificity reagent, FACS + sequencing; frameworks hold sequencing errors
Measured Quantity: polyreactivity (PSR sort gate)

Record Sequence	Result
QVQLVESGGGLVQAGGSLRLSCAASGTTFGAYAMGWYRQARGKERELVAVITWNDGSTYYADSVKGRFTISRDNAKNTVYLHMNSLKPEDTAVYYCAAEYAVSWSAFDWNYYYWGQGTQVTVSS	high polyreactivity
QVQLVESRGGLVQAGGSLRISCPDSGFTFTKNAMGWYRQAPGKERELVAAISRGRGRTYYADSVKGRFTISRDNAKNTVYFQMNSLIPEDTAVYYCNVDKVGPGYDYWGQGTQVTVSS	high polyreactivity

----------
experiment: yeast display, Sf9 membrane polyspecificity reagent, FACS + sequencing; frameworks hold sequencing errors
Measured Quantity: polyreactivity (PSR sort gate)

Record Sequence	Measured Quantity	Result
QVQLVESGGGLVQAGGSLRLSCAASGRTFAYNAMGWYRQAPGKERELVADITWSGDSTYYADSVKGRFTISRDNAKNTVYLQMNSLKPEDTAVYYCAADYFGGPSYEFDYWGQGTQVTVSS	polyreactivity (PSR sort gate)	low polyreactivity
QVQLVESGGGLVQAGGSLRLSCAASGFTFLSNAMGWYRQAPVKERELVAGISWDAGSTNYADSVKGRVTISRDNAKNTVYLQMNSLKPEDTAVYYCNADDSTGSRFYIEYDYWGQGTQVTVSS	polyreactivity (PSR sort gate)	low polyreactivity
QVQLVESGGGLVQAGGSLRLSCAASGSTFRYYAMGWYRQSPGKEREFVAAITKVGSRTSYADSVKGRFTISRDNAKNTVYLQMNSLKPEDTAVYYCATRDSPRTKNGYYYWGQGTKVTVSS	polyreactivity (PSR sort gate)	high polyreactivity
QVQLVESGGGLVQAGGSLPLSCAASGRTFPFNALGWYRQAPGKEREFVAAISVGGGSTYADSVKGRFTISRDNAKNTFYLQMNSLKPEDTAVYYCAAAYTKLYYYWGQGTQVTVSS	polyreactivity (PSR sort gate)	low polyreactivity
QVQLVESGGGLVQAGGSLRLSCAASGRTFRYYTMGWYRQAPGKEREFVAAISSTGGTYYADSVKGRFTISRDNAKNTVYLQMNSLKPEDTAVFYGAATFIQVVVNGQLYDYDYWGQGTQVTVSS	polyreactivity (PSR sort gate)	low polyreactivity

Reported polyreactivity (PSR sort gate) ( QVQLVESGGGLVQAGGSLRLSCAAYGRTFWNYAMGWYRQAPGKERELVAAISSSGGTTYYADSVKGRFTISRDNAKNTVYLQMNSLKPEDTAVYYCAATGVSKPQRSFVYWGQGTQVTVSS ) = low polyreactivity

Data point: QVQLGESGGGLVQAGGSLRLSCAASGSIFYFNAMGWYRQAPGKERELVAAISWSGRTYYADSVKGRFTISRDNAKNTVYLQMNSLKPEDTAVFYCAAKNTGRYYWGQGTQVTVSS ; polyreactivity (PSR sort gate) = high polyreactivity

Sure, the documented polyreactivity (PSR sort gate) for QVQLVESGGGLVQAGGRLRLSCAASGRIFVYYAMGWYRQAPGKERELVAAINSSGGRTYYADSVKGRFTISRDNAKNTVYLQMNSLKPEDTAVYYCAARKYSYPVAAHYYWGQGTQVTVSS is high polyreactivity

The value of polyreactivity (PSR sort gate) measured for the sequence QVHLVESGGGLVQAGGSLRLSCAASGRTFFQYAMGWYTQAPGKERELVAAIRWSDSTYYADSVKGRFTISRDNAKNTVYLQMNSLKPEDTAVYYCAKTYRYYRTMDYWGQGTQVTVSS turned out to be low polyreactivity

Sure, the documented polyreactivity (PSR sort gate) for QVQLVESGGGLVQAGGSLRLSCAASGSIFFAYDMGWYRQAPGKERELVAAISNIDGSTYYADSVKGRFTISRDNAKNTVYLQMNSVKPEDTAVYYCATRVYYLYDYWGQGTQVTVSS is low polyreactivity

The sequence listed as QVQLVESGGGLVQAGGSLRLSCAASGSTFYAYAMGWYRQAPGKERELVAAISGSGGRTYYADSVKGRFTISRDNAKNTVYLQMNSLKPEDTAVYYCAASLTSRLPDPPRYYWGQGTQVTVSS shows polyreactivity (PSR sort gate) equal to high polyreactivity

----------
assay: yeast display, Sf9 membrane polyspecificity reagent, FACS + sequencing; frameworks hold sequencing errors
Measured Quantity: polyreactivity (PSR sort gate)

Record Sequence	Result
QVQLLESGGGLVQAGGSLRLSCAHSGLIIWANAMGWYRQAPGKESEMVAAISGSGGRTYYADSVKGRFSISRDNAKNTVYLEMNSLIPEDTAVYFCAAKVSAWKKKSEMNYWGQGTQVTVSS	high polyreactivity
QVHLVESGGGLVQAGGSLPLSCAASGRTFIYNTMGWYRPAPGKERELVAAITRNGGSTNYADSVKGRFTISRDNAKNTVYLQMNSLKPEDTAVYYCAAKYIRFARSRDYWGQGTQVTVSS	high polyreactivity

----------
experiment: yeast display, Sf9 membrane polyspecificity reagent, FACS + sequencing; frameworks hold sequencing errors
Measured Quantity: polyreactivity (PSR sort gate)

Record Sequence	polyreactivity (PSR sort gate)
QVQLVESGGGLVQAGGSLRLSCAASGIIFRYYAMGWYRQAPGKERELVAAISRSGARTYYADTVKGRFTISRDNAKNTVFLQRNSLKPEDTAVYYCATDPTSGRFYYWGQGTQVTVSS	high polyreactivity
QVQLVESAAGLVQAGGSLRLSCAASGFIFWYYAMGWSRQAPGKERELVAAINSSGGSTYYADSVKGRFSISRDNAKNTVYLQMNSLKPEDSAVYYCAARAYQRGNYWGQGTQVTVSS	high polyreactivity
QVQLVESGGGLVQAGGSLRLSCAASGSIFRVYAMGWYRQAPGKERELVAAISSIVGSTYYADSVKGRFTISRDNAKNTVYLQMNSLKPADTAVYYCNKDGTWPRTGSEYDYWGQGTQVTVSS	low polyreactivity
QVQLVESGGGLVQAGGSLRLSCAAYGSIIHANAMGWYRQAPGKERELVAAITGDGSTYYADSVKGRFTISRDNAKNTVYLQMNSLKPEDTAVYYCNAEYYSTYDSWGQGTQVTVSS	low polyreactivity

// switching to the query sequence
// recorded polyreactivity (PSR sort gate) for QVQLVESGGGLVQAGGSLRLSCAASGSIFYEYAMGWYRQAPGKERELLASINRGGGSTYYADSVKGRFTISRDNAKNTVYLQMNSLKPEDTAVYYCAAQWKYRQSYLDYYWGQGTQVTVSS : low polyreactivity
